Values compiled from the supplement of paper PMC8253809.

- Test system: SUDIPGXIII (diffuse intrinsic pontine glioma line)
- protocol description: growth inhibition (% activity, log2 RLU normalised to DMSO / staurosporine); higher = more growth inhibition
- experimental setup: 33 µM
observable: growth inhibition (%)
Dear colleague, please return just the value in %, with no unit written.

Q: Looking for the measured growth inhibition of `CC(=O)OCC(CCn1cnc2cnc(N)nc21)COC(C)=O` , can you help?
A: 2.17

Q: Look up growth inhibition for this molecule: `O=C(Nc1ccccc1)c1ccccc1O`
A: 1.74

Q: Which value of growth inhibition has been reported for `COc1ccc(CN(CCN(C)C)c2ccccn2)cc1` in the records?
A: 0.98

Q: Return reported growth inhibition; argument: `COC(=O)N[C@H](C(=O)N[C@@H](Cc1ccccc1)[C@@H](O)CN(Cc1ccc(-c2ccccn2)cc1)NC(=O)[C@@H](NC(=O)OC)C(C)(C)C)C(C)(C)C`
A: 0.413

Q: Reported growth inhibition for `CC[C@H](C)[C@H](N)C1=N[C@H](C(=O)N[C@@H](CC(C)C)C(=O)N[C@H](CCC(=O)O)C(=O)N[C@H](C(=O)N[C@H]2CCCCNC(=O)[C@H](CC(N)=O)NC(=O)[C@@H](CC(=O)O)NC(=O)[C@H](Cc3cnc[nH]3)NC(=O)[C@@H](Cc3ccccc3)NC(=O)[C@H]([C@@H](C)CC)NC(=O)[C@@H](CCCN)NC2=O)[C@@H](C)CC)CS1` : what is it?
A: -1.26

Q: Requested read-out: growth inhibition. Entry: `CC#CCn1c(N2CCC[C@@H](N)C2)nc2c1c(=O)n(Cc1nc(C)c3ccccc3n1)c(=O)n2C`
A: -0.213

Q: Can you share its growth inhibition? I mean this molecule: `Cn1nnc2c(C(N)=O)ncn2c1=O`
A: -1.62

Q: Need growth inhibition, item `COC1=C(OC)C(=O)C(CCCCCCCCCCO)=C(C)C1=O`
A: 2.03

Q: So what's the measured growth inhibition for this one? `CCCCCCCCCCCCCCCC[N+](C)(C)CCN(Cc1ccc(OC)cc1)c1ncccn1`
A: 42.9

Q: I am curious: what growth inhibition value has been reported for C#CC1(O)CCC2C3CCc4cc(OC)ccc4C3CCC21C (stereo not drawn) ?
A: -0.164

Q: Can you look up the measured growth inhibition of `CN(C)C(=O)C(CCN1CCC(O)(c2ccc(Cl)cc2)CC1)(c1ccccc1)c1ccccc1` for me?
A: 9.15

Q: Quick check: growth inhibition of CCCCN1CCCCC1C(=O)Nc1c(C)cccc1C (stereo not drawn) ?
A: 7.3

Q: Find the recorded growth inhibition belonging to `O=C1c2c(O)ccc(O)c2C(=O)c2c(NCCNCCO)ccc(NCCNCCO)c21` and report it.
A: 39.8

Q: For the molecule `CC(=O)OCC(=O)NCCCOc1cccc(CN2CCCCC2)c1` , what growth inhibition is on record?
A: -1.04

Q: What does the data say about its growth inhibition? Entry: `CO[C@H]1C[C@@H]2CC[C@@H](C)[C@@](O)(O2)C(=O)C(=O)N2CCCC[C@H]2C(=O)O[C@H]([C@H](C)C[C@@H]2CC[C@@H](O)[C@H](OC)C2)CC(=O)[C@H](C)/C=C(\C)[C@@H](O)[C@@H](OC)C(=O)[C@H](C)C[C@H](C)/C=C/C=C/C=C/1C`
A: 0.792

Q: // growth inhibition lookup, key: `CCOC(=O)[C@H](CCc1ccccc1)N[C@@H](C)C(=O)N1Cc2cc(OC)c(OC)cc2C[C@H]1C(=O)O`
A: 1.38

Q: Quick one: growth inhibition of CCOCC(O)COc1ccc(NC(=O)CC[S+](C)C)cc1 (stereo not drawn) ?
A: 0.764

Q: Which growth inhibition is listed for `Cc1ncc(C[n+]2csc(CCO)c2C)c(N)n1` ?
A: 0.53
